- method: NCI Yeast Anticancer Drug Screen. Data for the mec2-1 strain (AID 157)
- test context: S. cerevisiae mec2-1 strain, at 50.0 µM
- Protocol: Growth inhibition of yeast strains with defined genetic alterations is measured as a screen for potential anti-cancer activity. Selected strains with alterations in DNA damage repair or cell cycle control were exposed to compounds and growth inhibition was measured relative to vehicle treated controls. The strain used in this assay is mec2-1
About 79,000 compounds went through this panel and 15% of them were active in at least one assay; those are over-represented in the sample as a whole. Active and inactive are the calls of the source. Rule as the data show it: active = growth inhibition above about 70%; inactive = the rest.
Outcome codes: YES = active, NO = inactive

> print(dat)
                                    compound  group
 1  C[C@H]1CCC2C(OC(=O)[C@@H]2CN(C)C)[C@]2(C)C(=O)C=CC12O (some centres not stated)     NO
 2  CC1OC(n2ccc(=O)[nH]c2=O)C=C(OC(=O)c2ccccc2)C1=O (configuration not stated)     NO
 3  Cc1ccc(NC(=O)CCc2nnc3s/c(=C\c4cccc([N+](=O)[O-])c4)c(=O)n23)cc1     NO
 4  Cc1cc2[nH]c3c(C#N)c4c(c(=O)n3c2cc1C)CCCC4     NO
 5            O=NNc1ccc(SSc2ccc(NN=O)cc2)cc1     NO
 6                    O=S1(=O)CC(N2CCCCC2)C1     NO
 7  CCC(C)C(CO)N=Cc1ccccc1O.O.[Cu] (configuration not stated)    YES
 8                    Cn1nc(Br)c(=O)n(C)c1=O     NO
 9  CC(C)C1=C(Cc2ccccc2)C(=O)O/C1=C\c1cc(Cl)c(O)c(Cl)c1     NO
10  COc1ccc(NC(C)c2ccncc2)cc1 (configuration not stated)     NO
11  CC(=O)c1c(-c2ccc(Cl)cc2)c(-c2ccc(Cl)cc2)nn(CCNC(C)C)c1=O    YES
12       CCN(CC)Cc1ccccc1COC(=O)c1cccc(Cl)c1     NO

====

- method: NCI Yeast Anticancer Drug Screen. Data for the cln2 rad14 strain (AID 165);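 also: 0% = growth equal to vehicle treated cultures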
- test context: S. cerevisiae cln2 rad14 strain, at 50.0 µM, stronger effect = higher value
About 79,000 compounds went through this panel and 15% of them were active in at least one assay; those are over-represented in the sample as a whole.
Quick reference for growth inhibition among some compounds
readout type: growth inhibition (%)

> print(dat)
                                   compound       readout.type  value.unit  measurement
1  C[N+](C)(C)C12CCCC1S(=O)(=O)C2 (stereo unspecified)  growth inhibition           %         -7.5
2   O=C(/C=C/c1cccs1)c1ccc([N+](=O)[O-])cc1  growth inhibition           %         -6.3
3                       COc1cc(C#N)cc(OC)c1  growth inhibition           %          3.6
4  Oc1c2cccc1Cc1cccc3c1OCCOCCOCCOCCOc1c(cccc1Cc1cccc(c1O)C3)C2  growth inhibition           %         13.8
5    CC(C)(CN1CCCCC1)C(=O)/C=C/c1ccc(Br)cc1  growth inhibition           %         41.4
6       CCCCCCC(N)(CCCCCC)C(=O)Nn1c(C)ccc1C  growth inhibition           %        -20.6

====

Quick reference for growth inhibition among some compounds
- method: NCI Yeast Anticancer Drug Screen. Data for the mec2-1 strain (AID 157)
- test context: S. cerevisiae mec2-1 strain, at 50.0 µM, stronger effect = higher value
About 79,000 compounds went through this panel and 15% of them were active in at least one assay; those are over-represented in the sample as a whole.
readout type: growth inhibition (%)

> print(dat)
                                    compound       readout.type  measurement
 1  CCCCCCCCCCCCCCCC(=O)Oc1ccc(C(=S)N2CCOCC2)cc1  growth inhibition         1.25
 2                Cc1cccc(C2(C(=O)O)CCCC2)c1  growth inhibition         -5.2
 3                        CN(CCCCl)Cc1ccccc1  growth inhibition        -26.8
 4                        Cc1cc(Br)c[nH]c1=O  growth inhibition         -7.7
 5                          CSCC(=O)c1ccccc1  growth inhibition         6.55
 6  COc1ccc2cc1Oc1ccc(cc1)C[C@@H]1c3cc(c(OC)cc3CCN1C)Oc1c(OC)c(OC)cc3c1[C@@H](C2)N(C)CC3  growth inhibition        -20.8
 7  CC(=O)OCC1OC(OC(C)=O)C(NC(=S)N(C)N=O)C(OC(C)=O)C1OC(C)=O (configuration not stated)  growth inhibition         -8.4
 8  O=C(CC/C=C(/CS(=O)(=O)c1ccccc1)S(=O)(=O)c1ccccc1)c1ccccc1  growth inhibition        -15.1
 9  O=C(NC(Cc1ccccc1)C(=O)N1CCOCC1)c1ccccc1 (configuration not stated)  growth inhibition         12.6
10                Cc1ccc2c(c1)-c1cc(C)ccc1C2  growth inhibition         19.9
11             C=C(C)CNC(=S)N(N)c1ccc(OC)cc1  growth inhibition         9.75
12  CN(C)c1ccc(/C=C/c2nc3ccc(Cl)cc3[nH]2)cc1  growth inhibition          0.1

====

- method: NCI Yeast Anticancer Drug Screen. Data for the cln2 rad14 strain (AID 165);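 also: 0% = growth equal to vehicle treated cultures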
- test context: S. cerevisiae cln2 rad14 strain, at 50.0 µM, stronger effect = higher value
This is part of a sample that, as a whole, favours compounds with a hit. Of some 79,000 tested, about 15% had one in any assay.
readout type: growth inhibition (%)

> print(dat)
                                    molecule  value.unit  measurement
 1  CN(C)c1ncnc2c1ncn2C1OC(CO)C(O)C1O (centres undefined)           %        -34.4
 2  COc1ccc(C(C)c2cc3c(cc2OCC(=O)O)OCO3)cc1OC (centres undefined)           %         -4.8
 3                C=CCNC(=O)c1ccccc1OCC(=O)O           %         -8.1
 4  O/N=C1\C(=C\c2ccc3c(c2)OCCO3)CCCC1C(NO)c1ccc2c(c1)OCCO2 (centres undefined)           %          2.8
 5  CC(=O)/C=C\C1CC2C=CC1C2 (centres undefined)           %         17.1
 6  C=CCC12CC(COc3ccccc3C(N)=O)OC1=Nc1ccccc1NC2=O (centres undefined)           %         -1.8
 7  OC(c1ccccc1)(c1c2ccccc2cc2ccccc12)C1CCC1 (centres undefined)           %         9.75
 8  O=C(Nc1ccc(Cl)cc1)Nc1nnc2nc(C(C(=O)c3cccs3)c3nc4nnc(NC(=O)Nc5ccc(Cl)cc5)n4[nH]c3=O)c(=O)[nH]n12           %         15.8
 9  Cc1cc(C)c(C(=O)Oc2ccc(C)c(CC(Cl)(Cl)Cl)c2)c(C)c1           %         19.1
10                            CN(C)CCOC(=S)S           %          1.5
11       O=c1c2c(nc3n1CCC3)sc1c(O)c(Br)ccc12           %        -25.1
12  CCCCCCCCCCCCCCCCCCC1=C(O)C(=O)C=C(OC)C1=O           %         -2.4
13                       COc1c(CO)cc(C)cc1CO           %         3.05
14  C(=C\c1cc(-c2cc(/C=C/c3ccccc3)[nH]n2)n[nH]1)/c1ccccc1           %         13.2
15                        CCCCCC(=O)OCCOCCCC           %        -35.4
16  CC(=O)Oc1c(C(OC(C)=O)OC(C)=O)ccc([N+](=O)[O-])c1OC(C)=O           %          5.5
17  CC1CCOC(c2ccccc2Cl)O1 (centres undefined)           %        -12.1
18  CC(=O)NC1=C(C)C(=O)c2c(nc3n2CCC3OC(=O)c2ccccc2)C1=N (centres undefined)           %            6
19  Nc1nc(Cc2ccccc2)c(-c2ccccc2)c(-c2nc(N)nc(Cc3ccccc3)c2-c2ccccc2)n1           %        -5.15
20      O/N=C1/CCCCCC1NO (centres undefined)           %         15.4
21  Nc1cc2c(O)cc(S(=O)(=O)O)cc2cc1S(=O)(=O)O           %         14.1
22  COc1ccc(C(CN(C)C(C)C)OC(=O)C(c2ccccc2)c2ccccc2)cc1OC (centres undefined)           %        -8.25
23                      O=C(O)CCCCCCCCC(=O)O           %        -12.6
24  Cc1ccc(C)c(N2C(=O)C(=O)C(c3nc4ccccc4o3)/C(=N/N)C2=O)c1 (centres undefined)           %          -17

// provenance: PubChem BioAssay (NCI)
